target: CA-IX (Homo sapiens); construct: His tag (C); purchased R&D Systems Inc. 2188-CA; host or cells: mouse myeloma cell line NS0; experiment: Binding affinity (Kd) determination for CA-IX inhibitors, DNSA fluorescence competition assay, Scatchard plots; conditions: Table 3
Quantity Name: Kd (nM)
Number in nM, nothing else.

Check out these entries, answers already filled in.
| Compound | Kd (nM) |
| --- | --- |
| COC(=O)[C@@H](CSCc1cccc(O)c1)NC(=O)[C@H](CCO)n1cc(COc2ccc3nc(S(N)(=O)=O)sc3c2)nn1 | 10 |
| NS(=O)(=O)c1nc2ccc(OCc3cn(CC(=O)N[C@@H](Cc4ccc(OCCO)cc4)C(=O)O)nn3)cc2s1 | 5 |

// switching to the query compound
## Task Param item = NS(=O)(=O)c1nc2ccc(OCc3cn([C@@H](Cc4ccc(OCCF)cc4)C(=O)N[C@@H](Cc4c[nH]c5ccccc45)C(=O)O)nn3)cc2s1 ; retrieve measured Kd.
## Result 14
